# RUN DESCRIPTION: Cytotoxicity against human fR2 cells assessed as cell growth inhibition incubated for 44 hrs by MTT assay
# Format: toxicity, cell-based
Reported values of IC50 at 44 h for individual entries
Number only, in µM; omit the unit.

Some molecules with recorded IC50 at 44 h:
MOLECULE	UNIT ANNOTATION	IC50 at 44 h
COC(=O)[C@]1([C@H]2CCN(C(=O)c3cccs3)C2=O)NCCc2c1[nH]c1ccccc21 (racemic)	µM	39.2
COC(=O)[C@]1([C@H]2CCn3c2nc2ccccc2c3=O)NCCc2c1[nH]c1ccccc21 (racemic)	µM	19.7
COC(=O)[C@]1([C@H]2CCCn3c2nc2ccccc2c3=O)NCCc2c1[nH]c1ccccc21	µM	93.6

For COC(=O)[C@]1([C@H]2CCCCn3c2nc2ccccc2c3=O)NCCc2c1[nH]c1ccccc21 the molecule record lists IC50 at 44 h as 35.6

molecule COC(=O)[C@@H]1Cc2c([nH]c3ccccc23)[C@@](C(=O)OC)([C@H]2CCCn3c2nc2ccccc2c3=O)N1 , IC50 at 44 h observed: 33.2

---

# RUN DESCRIPTION: Cmax in BALB/c mouse at 20 mg/kg, ip measured upto 24 hrs by LC-MS/MS analysis
# Format: ADME, organism-based
# Set-up: dose 20 mg/kg, time < 24 hrs, route ip
# MEASUREMENT PARAMETERS: in vivo
PROPERTY LABEL: Cmax (ng/mL)
Please give a number only; it is taken to be in ng/mL.

Cmax recorded for this molecule, COC(=O)[C@]1([C@H]2CCn3c2nc2ccccc2c3=O)NCCc2c1[nH]c1ccccc21 (racemic) , is 4490

---

# RUN DESCRIPTION: Cytotoxicity against human fR2 cells assessed as cell growth inhibition incubated for 44 hrs by MTT assay
# Format: toxicity, cell-based
PROPERTY LABEL: IC50 at 44 h

Some solved cases for reference:
COMPOUND	IC50 at 44 h
COC(=O)[C@]1([C@H]2CCN(C(=O)c3ccc(Cl)cc3[N+](=O)[O-])C2=O)NCCc2c1[nH]c1ccccc21 (racemic)	> 100 µM
CCOC(=O)[C@]1([C@H]2CCN(C(=O)c3ccccc3[N+](=O)[O-])C2=O)NCCc2c1[nH]c1ccccc21 (racemic)	> 100 µM
COC(=O)[C@]1([C@H]2CCN(C(=O)c3ccc(C(F)(F)F)cc3Cl)C2=O)NCCc2c1[nH]c1ccccc21 (racemic)	39.2 µM
CCOC(=O)[C@]1([C@H]2CCNC2=O)NCCc2c1[nH]c1ccccc21 (racemic)	> 100 µM
COC(=O)[C@@H]1Cc2c([nH]c3ccccc23)[C@@](C(=O)OC)([C@H]2CCCN(C(=O)c3ccccc3[N+](=O)[O-])C2=O)N1	> 100 µM

In plain terms, COC(=O)[C@]1([C@H]2CCN(C(=O)c3ccc(Cl)cc3)C2=O)NCCc2c1[nH]c1ccccc21 (racemic) has a documented IC50 at 44 h of > 100 µM

For reference, reported IC50 at 44 h for COC(=O)[C@]1([C@H]2CCN(C(=O)c3ccc(C)cc3[N+](=O)[O-])C2=O)NCCc2c1[nH]c1ccccc21 (racemic) stands at > 100 µM

Kindly note the recorded IC50 at 44 h for COC(=O)[C@]1([C@H]2CCN(C(=O)c3ccccc3Br)C2=O)NCCc2c1[nH]c1ccccc21 (racemic) , which is 89.8 µM

The measured IC50 at 44 h associated with COC(=O)[C@]1([C@H]2CCCN(C(=O)c3ccccc3[N+](=O)[O-])C2=O)NCCc2c1[nH]c1ccccc21 reads > 100 µM

The compound listed as COC(=O)[C@]1([C@H]2CCN(C(=O)c3ccccc3Cl)C2=O)NCCc2c1[nH]c1ccccc21 (racemic) shows IC50 at 44 h equal to 20 µM

compound COC(=O)[C@]1([C@H]2CCCCNC2=O)NCCc2c1[nH]c1ccccc21 , IC50 at 44 h observed: > 100 µM

---

# RUN DESCRIPTION: Cytotoxicity against human fR2 cells assessed as cell growth inhibition incubated for 44 hrs by MTT assay
# Format: toxicity, cell-based
Each item that follows carries a reported IC50 at 44 h.
Hi! Could you send only the number? It should be in µM, unit omitted.

MOLECULE	PROPERTY LABEL	EXPERIMENTAL VALUE
CCOC(=O)[C@]1([C@H]2CCN(C(=O)c3ccccc3Cl)C2=O)NCCc2c1[nH]c1ccccc21 (racemic)	IC50 at 44 h	84

In the following, a different molecule is considered.
Quick note, IC50 at 44 h for COC(=O)[C@]1([C@H]2CCCCN(C(=O)c3ccccc3[N+](=O)[O-])C2=O)NCCc2c1[nH]c1ccccc21 landed at 30.2
